Value source: PubChem BioAssay AID1918946

Test system: 885512-296-R-J2-PDC complex spheroid viability
Assay: Anticancer human tumor 885512-296-R-J2-PDC patient-derived breast carcinoma cell line growth inhibition
Settings: second compound 0.316 µM; first compound 0.949 µM; stronger effect = lower value
Labelling field: enter Y if recorded viability, T/C is less than 7%. Enter N if it equals or exceeds that cut-off.

INSERT INTO assay_data (compound, assigned_class) VALUES
  ('Nc1ccccc1NC(=O)c1ccc(CNC(=O)OCc2cccnc2)cc1 + NC1CCC(NC2CC2c2ccccc2)CC1', 'N'),
  ('NS(=O)(=O)OCC1CC(n2ccc3c(NC4CCc5ccccc54)ncnc32)CC1O (configuration not stated) + NC1CC1c1ccc(-c2cccc(O)c2)cc1', 'Y'),
  ('COc1cc(C2c3cc4c(cc3C(OC3OC5COC(C)OC5C(O)C3O)C3COC(=O)C23)OCO4)cc(OC)c1O (configuration not stated) + NC1CCC(NC2CC2c2ccccc2)CC1', 'N'),
  ('O=C(C=Cc1cccc(S(=O)(=O)Nc2ccccc2)c1)NO + NC1CC1c1ccc(-c2cccc(O)c2)cc1', 'Y'),
  ('CCN(c1cc(-c2ccc(CN3CCOCC3)cc2)cc(C(=O)NCc2c(C)cc(C)[nH]c2=O)c1C)C1CCOCC1 + NC1CCC(NC2CC2c2ccccc2)CC1', 'N'),
  ('COc1cc(C2c3cc4c(cc3C(OC3OC5COC(C)OC5C(O)C3O)C3COC(=O)C23)OCO4)cc(OC)c1O (configuration not stated) + NC1CC1c1ccc(-c2cccc(O)c2)cc1', 'Y');

---

Tested on: 885512-296-R-J2-PDC complex spheroid viability
Assay: Anticancer human tumor 885512-296-R-J2-PDC cell line growth inhibition;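 note: spheroids exposed to agents for 7 days before viability read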
Details: second compound 3.16 µM; first compound 0.0316 µM; stronger effect = lower value
Listed here: items and their measured viability, T/C.
assay readout: viability, T/C

INSERT INTO results (compound, assay_readout, result) VALUES
  ('CC1COCCN1c1cc(-c2ccnn2C)c2ccnc(-c3ccn[nH]3)c2n1 (configuration not stated) + NC1CC1c1ccc(-c2cccc(O)c2)cc1', 'viability, T/C', '1.89%'),
  ('Nc1ncn(C2CC(O)C(CO)O2)c(=O)n1 (configuration not stated) + NC1CC1c1ccc(-c2cccc(O)c2)cc1', 'viability, T/C', '73.1%'),
  ('CC(C)c1c(-c2ccccc2)nc2c(C#N)c[nH]n2c1=O + NC1CC1c1ccc(-c2cccc(O)c2)cc1', 'viability, T/C', '138%'),
  ('COc1cc(Nc2ncc3c(n2)-c2ccc(Cl)cc2C(c2c(F)cccc2OC)=NC3)ccc1C(=O)O + NC1CC1c1ccc(-c2cccc(O)c2)cc1', 'viability, T/C', '19.8%'),
  ('CC(C)CC(NC(=O)CNC(=O)c1cc(Cl)ccc1Cl)B1OC(=O)CC(CC(=O)O)(C(=O)O)O1 (configuration not stated) + NC1CC1c1ccc(-c2cccc(O)c2)cc1', 'viability, T/C', '1.75%'),
  ('CC[C@@]1(O)C(=O)OCc2c1cc1n(c2=O)Cc2cc3c(CN(C)C)c(O)ccc3nc2-1 + NC1CC1c1ccc(-c2cccc(O)c2)cc1', 'viability, T/C', '1.84%'),
  ('O=C(c1cc(Cc2n[nH]c(=O)c3ccccc23)ccc1F)N1CCN(C(=O)C2CC2)CC1 + NC1CC1c1ccc(-c2cccc(O)c2)cc1', 'viability, T/C', '111%');
